tested on: Candida albicans; experiment: Antifungal activity against Candida albicans MTCC 3017 at 500 ug/mL after 72 hrs by well plate method; type: functional; settings: MTCC 3017, 72 h, read-out: DIZ
measured.attribute: zone of inhibition at 500 µg/mL (mm)
Hi! Could you send only the number? It should be in mm, unit omitted.

Recorded result, COc1cc(C2CC(=NOC(=O)c3cc(O)c(O)c(O)c3)CC(c3ccc(O)c(OC)c3)N2C)ccc1O (stereo unspecified) , zone of inhibition at 500 µg/mL: 6

More entries:
Recorded result, COc1cc(C2CC(=NOC(=O)c3cc(O)cc(O)c3)CC(c3ccc(O)c(OC)c3)N2C)ccc1O (stereo unspecified) , zone of inhibition at 500 µg/mL: 3

Recorded result, COc1cc(C2CC(=NOC(=O)c3ccccc3)CC(c3ccc(O)c(OC)c3)N2C)ccc1O (stereo unspecified) , zone of inhibition at 500 µg/mL: 2

Recorded result, OC(Cn1cncn1)(Cn1cncn1)c1ccc(F)cc1F [FLUCONAZOLE] , zone of inhibition at 500 µg/mL: 20

Recorded result, COc1cc(C2CC(=NOC(=O)c3ccc([N+](=O)[O-])cc3)CC(c3ccc(O)c(OC)c3)N2C)ccc1O (stereo unspecified) , zone of inhibition at 500 µg/mL: 7

Recorded result, COc1cc(C2CC(=NOC(=O)c3ccc(O)cc3)CC(c3ccc(O)c(OC)c3)N2C)ccc1O (stereo unspecified) , zone of inhibition at 500 µg/mL: 2

Origin of the recorded values: ChEMBL document CHEMBL2203267
